Source: ChEMBL document CHEMBL4002589

Molecular target: Mitogen-activated protein kinase 14 (Homo sapiens, UniProt Q16539)
Sequence (Q16539 whole entry): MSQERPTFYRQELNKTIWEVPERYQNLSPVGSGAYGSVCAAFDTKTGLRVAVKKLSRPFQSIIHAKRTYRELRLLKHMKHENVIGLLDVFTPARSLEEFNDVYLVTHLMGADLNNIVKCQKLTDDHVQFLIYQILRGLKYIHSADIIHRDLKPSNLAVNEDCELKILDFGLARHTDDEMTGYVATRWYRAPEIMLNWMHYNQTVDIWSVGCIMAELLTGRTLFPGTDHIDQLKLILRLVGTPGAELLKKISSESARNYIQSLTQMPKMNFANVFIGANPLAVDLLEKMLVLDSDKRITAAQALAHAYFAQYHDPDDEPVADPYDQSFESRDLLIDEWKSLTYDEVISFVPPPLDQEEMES
Assay: Inhibition of GST-His tagged human p38alpha expressed in Escherichia coli assessed as reduction in ATF2 phosphorylation measured after 60 mins by ELISA
Using IC50 as the sorting value, the categories are bin A (below 0.02 µM), bin B (0.02 µM to below 0.1 µM), bin C (0.1 µM or more)

{"smiles.entry": "CCC(=O)Nc1cccc(C(=O)Nc2ccc(Nc3cc(-c4c(-c5ccc(F)cc5)nc(SC)n4C)ccn3)cc2)c1C", "group.label": "bin B"}
{"smiles.entry": "C=CC(=O)Nc1cccc(C(=O)Nc2cccc(Nc3cc(-c4c(-c5ccc(F)cc5)nc(SC)n4C)ccn3)c2)c1", "group.label": "bin C"}

For CCC(=O)Nc1cccc(C(=O)Nc2cccc(Nc3cc(-c4c(-c5ccc(F)cc5)nc(SC)n4C)ccn3)c2)c1 , which IC50 bin applies?
bin C

For C=CC(=O)Nc1cccc(C(=O)Nc2ccc(Nc3cc(-c4c(-c5ccc(F)cc5)nc(SC)n4C)ccn3)cc2)c1C , which IC50 bin applies?
bin A

For C=CC(=O)Nc1ccc(C(=O)Nc2ccc(Nc3cc(-c4[nH]c(SC)nc4-c4ccc(F)cc4)ccn3)cc2)cc1 , which IC50 bin applies?
bin A

For C=CC(=O)Nc1cccc(C(=O)Nc2ccc(Nc3cc(-c4c(-c5ccc(F)cc5)nc(SC)n4C)ccn3)c(C)c2)c1 , which IC50 bin applies?
bin A

For C=CC(=O)Nc1ccc(C(=O)Nc2ccc(Nc3cc(-c4c(-c5ccc(F)cc5)nc(SC)n4C)ccn3)cc2)cc1 , which IC50 bin applies?
bin B

For C=CC(=O)Nc1cccc(C(=O)Nc2ccc(Nc3cc(-c4[nH]c(SC)nc4-c4ccc(F)cc4)ccn3)cc2)c1 , which IC50 bin applies?
bin A

For CCC(=O)Nc1cccc(C(=O)Nc2ccc(Nc3cc(-c4c(-c5ccc(F)cc5)nc(SC)n4C)ccn3)cc2)c1 , which IC50 bin applies?
bin C

For CSc1nc(-c2ccc(F)cc2)c(-c2ccnc(Nc3ccc(N)cc3)c2)[nH]1 , which IC50 bin applies?
bin A

---

Can you tell me pIC50 for the items I'm about to list?
Target: Mitogen-activated protein kinase 10 (Homo sapiens)
Sequence (P53779 whole entry, the tested form may be a part): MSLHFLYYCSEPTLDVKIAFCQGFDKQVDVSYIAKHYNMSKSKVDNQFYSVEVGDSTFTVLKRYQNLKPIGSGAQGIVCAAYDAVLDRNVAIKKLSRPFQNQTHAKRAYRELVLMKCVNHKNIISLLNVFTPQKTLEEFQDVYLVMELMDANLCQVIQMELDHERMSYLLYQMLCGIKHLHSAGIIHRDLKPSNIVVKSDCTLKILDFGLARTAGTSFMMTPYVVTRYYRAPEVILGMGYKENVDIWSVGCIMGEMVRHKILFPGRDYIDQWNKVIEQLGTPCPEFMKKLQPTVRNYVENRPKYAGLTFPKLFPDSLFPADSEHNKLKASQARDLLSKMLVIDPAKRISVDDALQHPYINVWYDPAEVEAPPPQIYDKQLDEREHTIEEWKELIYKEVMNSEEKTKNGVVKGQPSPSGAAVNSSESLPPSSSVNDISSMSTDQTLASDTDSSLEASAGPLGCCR
Assay: Inhibition of recombinant 6x-His-tagged JNK3 (39 to 402 residues) (unknown origin) expressed in Escherichia coli BL21(DE3) assessed as reduction in ATF2 phosphorylation measured after 50 mins by ELISA
Answers are plain numbers, as −log10 of the molar value.

{"smiles.entry": "C=CC(=O)Nc1ccc(C(=O)Nc2cccc(Nc3cc(-c4c(-c5ccc(F)cc5)nc(SC)n4C)ccn3)c2)cc1", "recorded.result": 8.40}

Look up pIC50 for the entries below, preserving their order.
1. C=CC(=O)Nc1cccc(C(=O)Nc2ccc(Nc3cc(-c4c(-c5ccc(F)cc5)nc(SC)n4C)ccn3)cc2)c1C
2. CCC(=O)Nc1cccc(C(=O)Nc2ccc(Nc3cc(-c4c(-c5ccc(F)cc5)nc(SC)n4C)ccn3)cc2)c1C
3. C=CC(=O)Nc1cccc(C(=O)Nc2ccc(Nc3cc(-c4[nH]c(SC)nc4C)ccn3)cc2)c1
4. C=CC(=O)Nc1cccc(C(=O)Nc2cccc(Nc3cc(-c4c(-c5ccc(F)cc5)nc(SC)n4C)ccn3)c2)c1
5. CCC(=O)Nc1ccc(C(=O)Nc2ccc(Nc3cc(-c4c(-c5ccc(F)cc5)nc(SC)n4C)ccn3)cc2)cc1
6. C=CC(=O)Nc1cccc(C(=O)Nc2ccc(Nc3cc(-c4[nH]c(SC)nc4-c4ccc(F)cc4)ccn3)cc2)c1
7. C=CC(=O)Nc1ccc(C(=O)Nc2ccc(Nc3cc(-c4[nH]c(SC)nc4C)ccn3)cc2)cc1
8. CSc1nc(-c2ccc(F)cc2)c(-c2ccnc(Nc3ccc(N)cc3)c2)[nH]1

1. 8.70
2. 7.77
3. 8.70
4. 8.52
5. 7.57
6. 9.22
7. 6.70
8. 7.62

Look up pIC50 for the entries below, preserving their order.
1. C=CC(=O)Nc1ccc(C(=O)Nc2ccc(Nc3cc(-c4c(-c5ccc(F)cc5)nc(SC)n4C)ccn3)c(C)c2)cc1
2. C=CC(=O)Nc1cccc(C(=O)Nc2ccc(Nc3cc(-c4c(-c5ccc(F)cc5)nc(SC)n4C)ccn3)cc2)c1
3. C=CC(=O)Nc1ccc(C(=O)Nc2ccc(Nc3cc(-c4[nH]c(SC)nc4-c4ccc(F)cc4)ccn3)cc2)cc1
4. CCC(=O)Nc1cccc(C(=O)Nc2cccc(Nc3cc(-c4c(-c5ccc(F)cc5)nc(SC)n4C)ccn3)c2)c1

1. 8.10
2. 9.52
3. 8.52
4. 6.76

Look up pIC50 for the entries below, preserving their order.
1. CCC(=O)Nc1cccc(C(=O)Nc2ccc(Nc3cc(-c4[nH]c(SC)nc4C)ccn3)cc2)c1
2. C=CC(=O)Nc1cccc(C(=O)Nc2ccc(Nc3cc(-c4c(-c5ccc(F)cc5)nc(SC)n4C)ccn3)c(C)c2)c1
3. C=CC(=O)Nc1cccc(C(=O)Nc2cccc(Nc3cc(-c4c(-c5ccc(F)cc5)nc(SC)n4C)ccn3)c2)c1C
4. CCC(=O)Nc1cccc(C(=O)Nc2ccc(Nc3cc(-c4c(-c5ccc(F)cc5)nc(SC)n4C)ccn3)cc2)c1
5. CSc1nc(-c2ccc(F)cc2)c(-c2ccnc(Nc3ccc(NC(=O)c4cccc(N)c4)cc3)c2)n1C

1. 6.60
2. 8.70
3. 8.52
4. 7.64
5. 7.52

---

Assay: Drug metabolism in human liver microsomes at 100 uM preincubated with NADPH regenerating system for 5 mins followed by addition of liver microsomes measured after 180 mins by LC-MS analysis
Type: ADME, microsome
Settings: read-out: Drug metabolism
quantity: metabolised at 3 h, 100 µM (%)
One number for each entry, in %.

# metabolised at 3 h, 100 µM of C=CC(=O)Nc1cccc(C(=O)Nc2ccc(Nc3cc(-c4c(-c5ccc(F)cc5)nc(SC)n4C)ccn3)cc2)c1 = 13

---

Target: Mitogen-activated protein kinase 14 (Homo sapiens, UniProt Q16539)
Assay: Inhibition of GST-His tagged human p38alpha expressed in Escherichia coli assessed as reduction in ATF2 phosphorylation measured after 60 mins by ELISA
quantity: pIC50
Answers are plain numbers, as −log10 of the molar value.

{"smiles.entry": "C=CC(=O)Nc1cccc(C(=O)Nc2cccc(Nc3cc(-c4c(-c5ccc(F)cc5)nc(SC)n4C)ccn3)c2)c1C", "measured.target": "Mitogen-activated protein kinase 14 (Homo sapiens, UniProt Q16539)", "quantity": "pIC50", "recorded.result": 7.00}

Look up pIC50 for the entries below, preserving their order.
1. C=CC(=O)Nc1cccc(C(=O)Nc2ccc(Nc3cc(-c4c(-c5ccc(F)cc5)nc(SC)n4C)ccn3)cc2)c1
2. CCC(=O)Nc1ccc(C(=O)Nc2ccc(Nc3cc(-c4c(-c5ccc(F)cc5)nc(SC)n4C)ccn3)cc2)cc1
3. C=CC(=O)Nc1ccc(C(=O)Nc2cccc(Nc3cc(-c4c(-c5ccc(F)cc5)nc(SC)n4C)ccn3)c2)cc1

[7.44, 7.77, 7.59]

Look up pIC50 for the entries below, preserving their order.
1. CCC(=O)Nc1cccc(C(=O)Nc2ccc(Nc3cc(-c4[nH]c(SC)nc4-c4ccc(F)cc4)ccn3)cc2)c1
2. CCC(=O)Nc1ccc(C(=O)Nc2ccc(Nc3cc(-c4c(-c5ccc(F)cc5)nc(SC)n4C)ccn3)c(C)c2)cc1
3. CSc1nc(-c2ccc(F)cc2)c(-c2ccnc(Nc3ccc(NC(=O)c4cccc(N)c4)cc3)c2)n1C
4. C=CC(=O)Nc1cccc(C(=O)Nc2ccc(Nc3cc(-c4[nH]c(SC)nc4C)ccn3)cc2)c1
5. C=CC(=O)Nc1ccc(C(=O)Nc2ccc(Nc3cc(-c4c(-c5ccc(F)cc5)nc(SC)n4C)ccn3)c(C)c2)cc1
6. C=CC(=O)Nc1ccc(C(=O)Nc2ccc(Nc3cc(-c4[nH]c(SC)nc4C)ccn3)cc2)cc1

[8.40, 7.66, 6.83, 5.71, 7.46, 5.23]

---

Target: Mitogen-activated protein kinase 10 (Homo sapiens)
Experiment: Inhibition of recombinant 6x-His-tagged JNK3 (39 to 402 residues) (unknown origin) expressed in Escherichia coli BL21(DE3) assessed as reduction in ATF2 phosphorylation measured after 50 mins by ELISA
quantity: IC50

{"smiles.entry": "CCC(=O)Nc1ccc(C(=O)Nc2ccc(Nc3cc(-c4c(-c5ccc(F)cc5)nc(SC)n4C)ccn3)c(C)c2)cc1", "IC50": "25 nM"}
{"smiles.entry": "C=CC(=O)Nc1ccc(C(=O)Nc2ccc(Nc3cc(-c4c(-c5ccc(F)cc5)nc(SC)n4C)ccn3)cc2)cc1", "IC50": "10 nM"}

Mitogen-activated protein kinase 10 (Homo sapiens) assay, compound CCC(=O)Nc1cccc(C(=O)Nc2ccc(Nc3cc(-c4[nH]c(SC)nc4-c4ccc(F)cc4)ccn3)cc2)c1 , recorded IC50 = 2 nM
